target.entity: Gn of RVFV-ZH501 (Rift Valley Fever Virus strain ZH501)
protocol.description: cell-based or functional assay
measured.metric: Fold-Change ZH501/MP-12 (ratio of neutralization IC50s) (fold)
Provide the reading as a plain figure in fold.

Fill in the blank: the reported Fold-Change ZH501/MP-12 (ratio of neutralization IC50s) of RVFV-401 (antibody, V domains shown) VH: QITFKESGPTLVKPTQTLTLTCTFSGFSLSTSGVGVGWIRQPPGKALEWLALLYWNDDKRYTPSLRSRLTITKDTSKNQVVLTMTDMDPVDTATYYCARKPRDDFLRLTMMGGGDYFDYWGQGTLVTVSS VL: SYELTQPPSVSVSPGQTARITCSGDALPDQYAYWYQQKPGQAPVLVLYKDNERPSGIPERFSGSTSGTTVTLTISGVQAEDEADYYCQSADTSTAYHVIFGGGTKLTVL is ____.
0.2
